- Assayed system: Jun bZIP K258A;Fos bZIP R155A (human;human, UniProt P05412;P01100 252-315;137-200, K258A|R155A)
- Sequence (P05412 252-315 K258A, chain 1 of 2): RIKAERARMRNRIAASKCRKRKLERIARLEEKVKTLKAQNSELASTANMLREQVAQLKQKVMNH
- Sequence (P01100 137-200 R155A, chain 2 of 2): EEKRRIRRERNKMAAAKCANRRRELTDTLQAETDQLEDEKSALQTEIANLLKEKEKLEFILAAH
- Protocol text: ITC
Quantity kind: Kd (µM)

• TRE duplex 15-mer (dsDNA) DNA 1: CGCGTGACTCACCCC DNA 2: GGGGTGAGTCACGCG = 5.38
